This collection of values is drawn from paper PMC13360575.

target: chicken IgY (chicken); assay: BLI; Octet, SAX (streptavidin) biosensors; recombinant Fabs against IgY; KD from a kinetic 1:1 model, global fit over multiple concentrations (partial fits averaged for 3 low-affinity Fabs)

binder	koff (s⁻¹)
clone 2.1 Fab CB_07 (clonal burst) (Fab, V domains shown) VH: EVQLQESGPSLVKPSQTLSLTCSVTGDSITSGYWNWIRKFPGNKLEYMGYISYSGSTYYNPSLKSRISITRDTSKNQYYLQLNSVTTEDTATYYCGRDFDVWGAGTTVTVSS VL: DIVMTQSQKFMSTSVGDRVSVTCKASQNVGTNVAWYQQKPGQSPKALIYSASYRYSGVPDRFTGSGSGTDFTLTISNVQSEDLAEYFCQQYKSYPLTFGSGTKLEIK	0.000349
clone 2.1 Fab TA_15 (Fab, V domains shown) VH: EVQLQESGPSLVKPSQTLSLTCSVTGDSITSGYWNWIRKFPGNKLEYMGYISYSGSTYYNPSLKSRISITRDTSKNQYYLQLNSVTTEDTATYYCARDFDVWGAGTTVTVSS VL: DIVMTQSQKFMSTSVGDRVSVTCKASQNVGTNVAWYQQKPGQSPKALIFSASYRYSGVPDRFTGSGSGTDFTLTISNVQSEDLAEYFCQQYNSYPLTFGSGTKLEIK	0.00168
clone 2.1 Fab TA_27 (Fab, V domains shown) VH: EVQLQESGPSLVKPSQTLSLTCSVTGDSITSGYWNWIRKFPGNRLEYMGYISYSGSTYYNPSLKSRISITRDTSKNQYYLQLNSVTTEDTATYYCARDFDVWGAGTTVTVSS VL: DIVMTQSQKFMSTSVGDRVSVTCKASQNVGTNVGWFQQKPGQSPKSLIYSASYRYSGVPDRFTGSGSGTDFTLTISNVQSEDLAEYFCQQYSSYPLTFGSGTKLEIK	0.000203
